- test.system: IRAK4 (Homo sapiens)
- Sequence (Q9NWZ3 whole entry): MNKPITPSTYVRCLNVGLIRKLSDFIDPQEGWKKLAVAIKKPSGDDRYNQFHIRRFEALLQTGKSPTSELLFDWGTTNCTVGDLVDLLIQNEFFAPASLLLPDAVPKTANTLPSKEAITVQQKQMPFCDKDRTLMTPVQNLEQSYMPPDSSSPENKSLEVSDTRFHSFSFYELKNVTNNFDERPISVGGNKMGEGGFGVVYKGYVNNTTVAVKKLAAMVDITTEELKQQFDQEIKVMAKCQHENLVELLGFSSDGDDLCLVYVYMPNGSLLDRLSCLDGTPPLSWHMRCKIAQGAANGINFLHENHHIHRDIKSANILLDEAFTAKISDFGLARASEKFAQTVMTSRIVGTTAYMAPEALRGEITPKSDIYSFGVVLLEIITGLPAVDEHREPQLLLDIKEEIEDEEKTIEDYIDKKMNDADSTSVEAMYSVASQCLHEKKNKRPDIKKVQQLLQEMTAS
- assay: OCI-LY-10 degradation assay (western blot, % IRAK4 degraded after 4 hours)
- Assay type: cell-based
- Set-up: endogenous in cells; host or cells: OCI-LY10
- condition.parameters: OCI-LY10 cells, 4 hours, 0.01 uM compound
measurement.name: OCI-LY10 % IRAK4 Degradation (0.01 uM)

Example cases with answers are listed next.
Recorded result, O=C1CCC(N2C(=O)c3cccc(NCCc4cnnn4CCOCCOCCNCc4ccc(-n5cc(NC(=O)c6coc(-c7ccnc(NCC8CC8)c7)n6)c(C(F)F)n5)cc4)c3C2=O)C(=O)N1 (centres unmarked) , OCI-LY10 % IRAK4 Degradation (0.01 uM): C (<20% degradation)

Form field OCI-LY10 % IRAK4 Degradation (0.01 uM), entry NC(=O)c1nn(-c2ccc(C(=O)NCCOCCCc3cccc4c3C(=O)N(C3CCC(=O)NC3=O)C4=O)cc2)cc1NC(=O)c1coc(-c2ccnc(NCC(F)(F)F)c2)n1 (centres unmarked) : C (<20% degradation)

Record summary for CN(CCCc1ccc2c(c1)C(=O)N(C1CCC(=O)NC1=O)C2=O)Cc1ccc(-n2cc(NC(=O)c3coc(-c4ccnc(NCC(F)(F)F)c4)n3)c(C(F)F)n2)cc1 (centres unmarked) : reported OCI-LY10 % IRAK4 Degradation (0.01 uM) = C (<20% degradation)

// recorded OCI-LY10 % IRAK4 Degradation (0.01 uM) for NC(=O)c1nn(-c2ccc(COCC3CCCCN3CCOCCNc3cccc4c3C(=O)N(C3CCC(=O)NC3=O)C4=O)cc2)cc1NC(=O)c1coc(-c2ccnc(NCC(F)(F)F)c2)n1 (centres unmarked) : B (>20-50% degradation)

# molecule O=C1CCC(N2C(=O)c3ccc(CCCOCCNCc4ccc(-n5cc(NC(=O)c6coc(-c7ccnc(NCC8CC8)c7)n6)c(C(F)F)n5)cc4)cc3C2=O)C(=O)N1 (centres unmarked) ; its OCI-LY10 % IRAK4 Degradation (0.01 uM) = B (>20-50% degradation)

Record O=C1CCC(N2C(=O)c3cccc(N4CCN(CCOCCOCCOCCNC(=O)c5ccc(-n6cc(NC(=O)c7coc(-c8ccnc(NCC9CC9)c8)n7)c(C(F)F)n6)cc5)CC4)c3C2=O)C(=O)N1 (centres unmarked) , field OCI-LY10 % IRAK4 Degradation (0.01 uM): C (<20% degradation)

Then this molecule:
Value of measured OCI-LY10 % IRAK4 Degradation (0.01 uM) for the entry NC(=O)c1nn(-c2ccc(CNCCCCCOCCCc3cccc4c3C(=O)N(C3CCC(=O)NC3=O)C4=O)cc2)cc1NC(=O)c1coc(-c2ccnc(NCC3CC3)c2)n1 (centres unmarked) : C (<20% degradation)
